Tested on: PC-3 cells
TEST_DESCRIPTION: Apoptosis induction in PC-3 cells (T1/2, time for 50% apoptotic death; cell viability / Cell Death Detection ELISA)
SETUP_CONDITIONS: 50 μM; time required for eliciting 50% apoptotic death; Table 2
The compounds listed here are annotated with their T½ (h) 50 μM.

The cases that follow already have their T½ (h) 50 μM on record.
Cc1ccc(C)c(C)c1 [Compound 21b] : 2 h
Fc1ccc(F)cc1 : >100 h

Req: Supply T½ (h) 50 μM measured with PC-3 cells for Cc1cc(Cl)sc1Cl [Compound 29b] .
Resp: >100 h

Req: Supply T½ (h) 50 μM measured with PC-3 cells for Cc1ccc(F)cc1F .
Resp: >100 h

Req: Supply T½ (h) 50 μM measured with PC-3 cells for Cc1ccc(C#N)cc1 [Compound 16b] .
Resp: >100 h

Req: Supply T½ (h) 50 μM measured with PC-3 cells for Cc1cccs1 [Compound 27b] .
Resp: >100 h

Req: Supply T½ (h) 50 μM measured with PC-3 cells for COc1ccc(C)c(OC)c1 [Compound 22b] .
Resp: >100 h

Req: Supply T½ (h) 50 μM measured with PC-3 cells for COc1ccc(OC)c(C)c1 [Compound 23b] .
Resp: >100 h

Req: Supply T½ (h) 50 μM measured with PC-3 cells for Cc1ccc(-c2cc(C(F)(F)F)nn2-c2ccc(S(N)(=O)=O)cc2)cc1 [celecoxib, reference compound] .
Resp: 2 h

Req: Supply T½ (h) 50 μM measured with PC-3 cells for Cc1ccco1 [Compound 26b] .
Resp: >100 h
